The reported numbers originate from PubChem BioAssay AID248.

- System: L1210 leukemia ip in BDF1 mice, survival T/C
- assay method text: NCI In Vivo Anticancer Drug Screen. Data for tumor model L1210 Leukemia (intraperitoneal) in B6D2F1 (BDF1) mice
- run parameters: endpoint: mean survival time; dose: 400.0 mg/kg/injection; schedule: Q04DX003 (ip); vehicle: Klucel (hydroxypropylcellulose) (HPC); higher = longer survival
Toxic doses and inconclusive results are not listed.
assay readout: T/C

# example entries with known answers
| compound | T/C |
| --- | --- |
| Nc1nc(O)c2[nH]c(N=Nc3ccc(-c4ccc(N=Nc5nc6nc(N)nc(O)c6[nH]5)cc4)cc3)nc2n1 | 88 % of control |
| COc1cc2c(cc1O)CCCCC2=O | 94 % of control |
| CCCCNC(=O)Nc1ccc(C(=O)OCC)cc1 | 94 % of control |
| CC(=S)c1ccccc1 | 97 % of control |
| O=C(NC(CO)C(=O)OCc1ccccc1)OCc1ccccc1 (configuration not stated) | 90 % of control |

Give measured T/C for every item shown.
1. CCCCNC(=O)NC(C(=O)OCC)C(=O)OCC
2. O=c1oc2ccc(Cl)cc2c2ccccc12
3. COc1ccc([N+](=O)[O-])cc1NC(=O)NCCCl
4. O=C(OCc1ccccc1)c1cc(OCc2ccccc2)ccc1OCc1ccccc1
5. O=C(O)CSCc1ccc(Cl)cc1
6. O=C(C#Cc1ccccc1)Nc1ccccc1
7. Oc1ccc2ccccc2c1C=Nc1ccc(Br)cc1
8. CCOC(=O)/C=C(\C)OC

Outgoing:
102 % of control
104 % of control
98 % of control
98 % of control
98 % of control
98 % of control
91 % of control
100 % of control

Give measured T/C for every item shown.
1. CC(Cl)CN(CC(C)Cl)C(=O)OCC(NC(=O)OCc1ccccc1)C(=O)OCc1ccccc1 (configuration not stated)
2. CC(=O)NCCCOc1ccc([N+](=O)[O-])cc1
3. O=C(NNc1ccc([N+](=O)[O-])cc1)c1ccccc1
4. CC1CCCN(C)C1 (configuration not stated)
5. c1ccc(-c2c[nH]c(-c3ccccc3)c2)cc1

Outgoing:
1: 91 % of control; 2: 92 % of control; 3: 100 % of control; 4: 93 % of control; 5: 94 % of control

Give measured T/C for every item shown.
1. c1ccc(-c2nc3ccccc3o2)cc1
2. O=C1c2ccccc2C(=O)N1Cc1cccc([N+](=O)[O-])c1
3. Clc1ccc2c(c1)Cc1cc(Cl)cc(Cl)c1-2
4. O=C(NCCNC(=O)Nc1ccc(Cl)cc1)Nc1ccc(Cl)cc1
5. CC(C)=CC(=O)CNC(N)=S
6. CCCCOc1ccc(OC(=O)Nc2cc(C)ccc2C)cc1
7. CC(=O)NC(CC(=O)O)C(=O)O (configuration not stated)

Outgoing:
["103 % of control", "90 % of control", "96 % of control", "92 % of control", "93 % of control", "90 % of control", "97 % of control"]

Give measured T/C for every item shown.
1. O=[N+]([O-])c1ccc(N2CCOCC2)cc1
2. COc1cc2c3c(c1)/C(=N\NC(N)=O)CCN3CCC2

Outgoing:
105 % of control
108 % of control

----------
- Test system: L1210 leukemia ip in BDF1 mice, survival T/C
- assay method text: NCI In Vivo Anticancer Drug Screen. Data for tumor model L1210 Leukemia (intraperitoneal) in B6D2F1 (BDF1) mice
- run parameters: endpoint: mean survival time; dose: 5.0 mg/kg/injection; schedule: Q01DX001 (ip); vehicle: saline; higher = longer survival
Toxic doses and inconclusive results are not listed.
Assignment: determine reported T/C for the given molecules.

# example entries with known answers
| item smiles | test value |
| --- | --- |
| O=C1C=C(O)c2[nH]c(=O)ccc2C1=O | 97 % of control |
| Cc1nc(NCc2ccccc2)c2cc[nH]c2n1 | 104 % of control |
| O=C(O)c1ccc(N/N=C\c2cc(=O)[nH]c(=O)[nH]2)cc1 | 97 % of control |

Give measured T/C for every item shown.
1. CCP(CC)c1cccc(OC(=O)NC)c1
2. C/C=C1\C(=O)O[C@@]23C=C[C@H]4C(C(=O)OC)=CO[C@@H](O[C@H]12)[C@H]43

Outgoing:
["110 % of control", "103 % of control"]

Incoming: Find the measured T/C of Cc1nc(C(=O)NN)co1 and report it.
Outgoing: 106 % of control

----------
Assignment: determine reported T/C for the given molecules.
- Test system: L1210 leukemia ip in BDF1 mice, survival T/C
- assay method text: NCI In Vivo Anticancer Drug Screen. Data for tumor model L1210 Leukemia (intraperitoneal) in B6D2F1 (BDF1) mice
- run parameters: endpoint: mean survival time; dose: 200.0 mg/kg/injection; schedule: Q01DX009 (ip); vehicle: Klucel (hydroxypropylcellulose) (HPC); higher = longer survival
Inconclusive results and toxic doses are left out.

| molecule | T/C |
| --- | --- |
| CCN(CC)S(=O)(=O)c1ccc(C(=O)O)cc1 | 104 % of control |
| C/C(=C\c1ccccc1Cl)[N+](=O)[O-] | 93 % of control |

Give measured T/C for every item shown.
1. COc1cc2c(cc1OC)C1CC(=O)CCN1CC2 (configuration not stated)
2. CC1=CC(c2ccccc2O)C(=C(C)C)CC1 (configuration not stated)

Outgoing:
1: 101 % of control; 2: 89 % of control

Give measured T/C for every item shown.
1. O=C(O)c1ccccc1Nc1ccccc1[N+](=O)[O-]
2. O=C1c2ccccc2C(=O)c2c(Cl)ccc(O)c21
3. CCCCOc1ccc(OC(=O)Nc2cc(C)ccc2C)cc1

Outgoing:
1. 102 % of control
2. 105 % of control
3. 96 % of control

----------
- System: L1210 leukemia ip in BDF1 mice, survival T/C
- assay method text: NCI In Vivo Anticancer Drug Screen. Data for tumor model L1210 Leukemia (intraperitoneal) in B6D2F1 (BDF1) mice
- run parameters: endpoint: mean survival time; dose: 3.12 mg/kg/injection; schedule: Q01DX009 (ip); vehicle: saline; higher = longer survival
Toxic doses and inconclusive results are not listed.
Assignment: determine reported T/C for the given compounds.

| item smiles | T/C |
| --- | --- |
| C[CH2][Sn]([CH2]C)([O]S(=O)(=O)CC12CCC(CC1=O)C2(C)C)[O]S(=O)(=O)CC12CCC(CC1=O)C2(C)C | 106 % of control |
| O=C(C#Cc1ccccc1)[O][Sn]([c]1ccccc1)([c]1ccccc1)[c]1ccccc1 | 94 % of control |
| Cc1ccc(S(=O)(=O)/C(Cl)=C(/Cl)S(=O)(=O)c2ccc(C)cc2)cc1 | 95 % of control |

Continue with the compound presented below.
Incoming: Find the measured T/C of COc1ccc(/C=N/n2c3ccccc3c3ccccc32)cc1OCCCN(C)C and report it.
Outgoing: 98 % of control

----------
Assignment: determine reported T/C for the given compounds.
- System: L1210 leukemia ip in BDF1 mice, survival T/C
- assay method text: NCI In Vivo Anticancer Drug Screen. Data for tumor model L1210 Leukemia (intraperitoneal) in B6D2F1 (BDF1) mice
- run parameters: endpoint: mean survival time; dose: 400.0 mg/kg/injection; schedule: Q04DX003 (ip); vehicle: saline with Tween-80; higher = longer survival
Inconclusive results and toxic doses are left out.

# example entries with known answers
| compound | T/C |
| --- | --- |
| CC(C)=CCC/C(C)=C/CNC(=O)/C=C/C(=O)O | 97 % of control |
| COC(OC)C1OC(C)(C)OC1C(OS(=O)(=O)c1ccc(C)cc1)C1COC(C)(C)O1 (configuration not stated) | 89 % of control |
| Cc1ccc(C)c(C(=O)c2ccccc2C(=O)O)c1 | 90 % of control |

Give measured T/C for every item shown.
1. CCCCCCCCCCCCCCCCNS(=O)(=O)c1ccc(S(=O)(=O)F)cc1
2. CCOc1ccc(OCC)c(NC(=O)Nc2cc(Cl)ccc2OC)c1
3. COc1cc(C)c(NC(=O)Oc2ccccc2)c(C)c1
4. NC(=O)C1C2C=CC(CC2)C1C(N)=O (configuration not stated)
5. COC(=O)/C(=C\c1ccncc1)c1cccc2ccccc12
6. CC(=O)N(C)c1ccc(NC2=NCCO2)cc1
7. CC(=O)CC(=O)NC1CCCCC1
8. Cc1ccc(SCCn2cnc3c(ncn3Cc3ccccc3)c2=S)cc1

Outgoing:
1: 89 % of control; 2: 91 % of control; 3: 91 % of control; 4: 91 % of control; 5: 94 % of control; 6: 98 % of control; 7: 94 % of control; 8: 101 % of control

Incoming: Find the measured T/C of OC1(CBr)CCCCC1 and report it.
Outgoing: 95 % of control

----------
- Test system: L1210 leukemia ip in BDF1 mice, survival T/C
- assay method text: NCI In Vivo Anticancer Drug Screen. Data for tumor model L1210 Leukemia (intraperitoneal) in B6D2F1 (BDF1) mice
- run parameters: endpoint: mean survival time; dose: 150.0 mg/kg/injection; schedule: Q01DX001 (ip); vehicle: other; higher = longer survival
Toxic doses and inconclusive results are not listed.
assay readout: T/C

| compound | T/C |
| --- | --- |
| C(=N\Nc1ccccc1)/c1cccc[n+]1Cc1ccccc1 | 96 % of control |
| CCCCCCCC(C)NCCOC(=O)c1ccc(N)cc1 (stereo not given) | 101 % of control |
| Nc1ccc(SC(Sc2ccc(N)cc2)c2ccccc2)cc1 | 107 % of control |
| C/C=C/CC1(c2ccccc2)C(=O)NC(=S)NC1=O | 107 % of control |

Continue with the compound presented below.
Incoming: Find the measured T/C of COC(=O)c1cn[nH]c1N=Nc1ccc(N(CCCl)CCCl)cc1 and report it.
Outgoing: 124 % of control
